All values here come from a melting point compilation (Tetko et al.; mined from patent text by program, amines drawn as free bases though some values may be those of a salt).

Item-by-item account of melting point
Measured Endpoint: melting point

INSERT INTO assay_data (smiles_data, result) VALUES
  ('O=C1CCC(c2ccc(N=C=S)cc2)=NN1', '182 to 183 °C'),
  ('CN1CCN(c2ccc(S(=O)(=O)Oc3ccc(F)cc3)cc2)C1=O', '170 to 172 °C'),
  ('O=C(O)c1cc(-c2ccc3c(c2)CCO3)nn(CC2CC2)c1=O', '160 to 165 °C'),
  ('CCN1c2ncc(COc3cccc(OC)c3)cc2C(=O)N(C)c2ccc(Cl)nc21', '95 to 97 °C'),
  ('CN(C)c1cccc(Cc2cc3cccc(-c4cccc(C(=O)NCC(N)=O)c4)c3s2)c1', '149 to 151 °C');
